System: Pancreas
Test: Biodistribution in ddY mouse pancreas at 0.1 to 0.4 uCi, iv after 2 mins by gamma counting
Format: ADME, organism-based
Conditions: in vivo
Attribute Measured: Drug uptake (% ID/g)

INSERT INTO results (molecule, measured_target, endpoint_value) VALUES
  ('COc1ccc2nc3cc([125I])ccc3c(N)c2c1', 'Pancreas', 4.34),
  ('COc1ccc2nc3cc([125I])ccc3c(N(C)C)c2c1', 'Pancreas', 5.21),
  ('CNc1c2ccc([125I])cc2nc2ccc(OC)cc12', 'Pancreas', 6.91),
  ('COc1ccc2nc3cc([125I])ccc3c(OC)c2c1', 'Pancreas', 5.41),
  ('CCN(CC)CCCC(C)Nc1c2ccc([125I])cc2nc2ccc(OC)cc12 (stereo unspecified)', 'Pancreas', 4.76),
  ('COc1c2ccc([125I])cc2nc2ccc(N(C)C)cc12', 'Pancreas', 4.11);

###

Test system: Heart
Experiment: Biodistribution in ddY mouse heart at 0.1 to 0.4 uCi, iv after 60 mins by gamma counting
Type: ADME, organism-based
Conditions: in vivo, 1 h
Attribute Measured: Drug uptake (% ID/g)

INSERT INTO assay_data (molecule, display_unit, endpoint_value) VALUES
  ('COc1ccc2nc3cc([125I])ccc3c(N(C)C)c2c1', '% ID/g', 4.33),
  ('CCN(CC)CCCC(C)Nc1c2ccc([125I])cc2nc2ccc(OC)cc12 (stereo unspecified)', '% ID/g', 3.96),
  ('CNc1c2ccc([125I])cc2nc2ccc(OC)cc12', '% ID/g', 0.84),
  ('COc1ccc2nc3cc([125I])ccc3c(N)c2c1', '% ID/g', 0.49),
  ('COc1c2ccc([125I])cc2nc2ccc(N(C)C)cc12', '% ID/g', 2.38),
  ('COc1ccc2nc3cc([125I])ccc3c(OC)c2c1', '% ID/g', 1.1);

###

Test: n-octanol-sodium phosphate buffer partition co-efficient, log D of the compound at pH 7.4 by shake flask method
Type: physicochemical
Attribute Measured: logD

INSERT INTO results (molecule, attribute_measured, endpoint_value) VALUES
  ('COc1c2ccc([125I])cc2nc2ccc(N(C)C)cc12', 'logD', 1.81),
  ('CCN(CC)CCCC(C)Nc1c2ccc([125I])cc2nc2ccc(OC)cc12 (stereo not given)', 'logD', 1.11),
  ('CNc1c2ccc([125I])cc2nc2ccc(OC)cc12', 'logD', 2.14),
  ('COc1ccc2nc3cc([125I])ccc3c(N(C)C)c2c1', 'logD', 2.19),
  ('COc1ccc2nc3cc([125I])ccc3c(N)c2c1', 'logD', 2.13);

###

Tested on: Brain
Experiment: Biodistribution in ddY mouse brain at 0.1 to 0.4 uCi, iv after 60 mins by gamma counting
Assay type: ADME, organism-based
Conditions: in vivo, 1 h
Each record here notes measured Drug uptake.
Attribute Measured: Drug uptake (% ID/g)

INSERT INTO results (molecule, attribute_measured, display_unit, endpoint_value) VALUES
  ('CNc1c2ccc([125I])cc2nc2ccc(OC)cc12', 'Drug uptake', '% ID/g', 0.33),
  ('CCN(CC)CCCC(C)Nc1c2ccc([125I])cc2nc2ccc(OC)cc12 (stereo unspecified)', 'Drug uptake', '% ID/g', 0.28),
  ('COc1ccc2nc3cc([125I])ccc3c(N(C)C)c2c1', 'Drug uptake', '% ID/g', 0.23),
  ('COc1c2ccc([125I])cc2nc2ccc(N(C)C)cc12', 'Drug uptake', '% ID/g', 0.71),
  ('COc1ccc2nc3cc([125I])ccc3c(OC)c2c1', 'Drug uptake', '% ID/g', 0.37),
  ('COc1ccc2nc3cc([125I])ccc3c(N)c2c1', 'Drug uptake', '% ID/g', 0.19);
